So I've got a bunch of molecules here, and I need their growth values.
System: SN12C renal
method notes: NCI-60 one-dose screen, 48 h (100 = growth as untreated, 0 = no growth, -100 = all killed)
test settings: 10 µM unless noted
Method: Growth inhibition of the SN12C human tumor cell line is measured as a screen for anti-cancer activity. Cells are grown in 96 well plates and exposed to the test compound for 48 hours. Compounds are tested at a single concentration, which is 10^-5 M for most compounds. The reported endpoint is percent growth (GI% or GIPRCNT), where numbers from 0 - 100% represent growth inhibition, and numbers from -100% - 0 represent cell death. For example, a value of 40 represents 60% growth inhibition. […]
About 83,000 compounds went through this panel and 20% of them were active in at least one assay; those are over-represented in the sample as a whole.
Reply numerically in %, unit not repeated.

So what's the measured growth for this one? `C=CCCCCCCCCC(=O)[O][Sn]([CH2]CCC)([CH2]CCC)[CH2]CCC`
-82

Quick one: growth for `Oc1[nH]c2ccccc2c1/C=c1/ccc2c(c1)N=C(c1cc(F)cc(F)c1)N=2` ?
68.2

// returns reported growth for input `O=C(Nc1ccccc1Cl)c1cnc2ccc(C3CCNCC3)cn12`
58.8

Item under review: `Clc1ccc2nc(Cl)c3ccccc3c2c1` . Reported growth?
87.3

Could you share which growth value was measured for `COc1ccc(/C(=C2\O[C@@H]([C@H](O)CO)[C@H]3OC(C)(C)O[C@@H]23)c2cc(OC)c(OC)c(OC)c2)cc1O` ?
95.6

Quick one: growth for `Clc1nc(Cl)c2ncn(-c3ccccc3)c2n1` ?
82

GET /values?readout=growth&item= `O=C(OC[C@H]1O[C@H](OC(=O)c2cc(O)c(O)c(OC(=O)c3cc(O)c(O)c(O)c3)c2)[C@H](OC(=O)c2cc(O)c(O)c(OC(=O)c3cc(O)c(O)c(O)c3)c2)[C@@H](OC(=O)c2cc(O)c(O)c(OC(=O)c3cc(O)c(O)c(O)c3)c2)[C@@H]1OC(=O)c1cc(O)c(O)c(OC(=O)c2cc(O)c(O)c(O)c2)c1)c1cc(O)c(O)c(OC(=O)c2cc(O)c(O)c(O)c2)c1`
31.6

Entry `O=C1OCCCCCCCCCC#Cc2ccccc21` : reported growth = ?
113

# query: growth of entry CCOC(=O)C1=NN(c2ccc(Cl)cc2)C2C3N(c4ccc(Cl)cc4)N=C(C(=O)OCC)N3c3ccccc3N12 (centres undefined)
111

Which value of growth has been reported for CCOC(=O)C1C(=O)OC2CCCCC21 (centres undefined) in the records?
102

Given `Cc1cc(NC(=O)Nc2cc(Cl)ccc2C)no1` , state its recorded growth.
109

Which value of growth has been reported for CC[N+](C)(CC)CCCC(C)Nc1ccnc2cc(Cl)ccc12 (centres undefined) in the records?
109

I'd like to know its growth. The molecule in question is `CN(CC(=O)N(Cc1ccc(C2CCCCC2)cc1)c1ccc(C(=O)O)cc1)S(=O)(=O)c1c(F)c(F)c(F)c(F)c1F`
19

Tell me the measured growth of Cc1ccc(C(O)C2=CC(=O)c3ccccc3C2=O)cc1 (centres undefined) , please.
94.9

For the molecule `CCOC(=O)/C=C(/C)Sc1cc(O)c2ccccc2c1O` , what growth is on record?
-68.3

growth for `N=C(N)/N=C(\CCc1nc2ccccc2[nH]1)c1nc2ccccc2[nH]1` ?
85.6

For the molecule shown here, `CCS(=O)(=O)OCCCl` , give the reported growth.
102

Report growth for `CCn1c2ccccc2c2ccc(C(C)=O)cc21` please.
114

Looking for the measured growth of COc1cccc2c1C(=O)c1c(O)c3c(c(O)c1C2=O)C[C@@](O)(/C(C)=N/NC(=O)c1cccc([N+](=O)[O-])c1)C[C@@H]3OC1CC(N)C(O)C(C)O1 (some centres undefined) , can you help?
-9.27

###

Please respond with reported growth for every item in the list.
System: UACC-257 melanoma
method notes: NCI-60 one-dose screen, 48 h (100 = growth as untreated, 0 = no growth, -100 = all killed)
test settings: 10 µM unless noted
Compounds without any hit were thinned out: in the full panel of roughly 83,000, 20% have a hit.
Enter your answer as a number in %; do not include the unit.

Look up growth with UACC-257 melanoma for this compound: `Cn1c(N)c(N=O)c(=O)[nH]c1=O`
107

Query the reported growth for UACC-257 melanoma; item: CSc1ncc2ncn(C3OC(CO)C(O)C3O)c2n1 (stereo unspecified)
126

Request body: readout growth, system UACC-257 melanoma, query `Cc1c(C(N)=O)sc2c1c(=O)n(Cc1ccccc1)c1nnc(SCC(=O)Nc3ccc(Cl)cc3)n21` . Return the value.
35.3

Form field - read-out: growth; system: UACC-257 melanoma; submitted item: `NS(=O)(=O)c1ccc(NC2=C(Cl)C(=O)c3ccccc3C2=O)cc1`
92.5

Entry `Cn1cc(-c2csc(-c3cn(C)c4ncccc34)n2)c2cc(F)cnc21` , system UACC-257 melanoma: what growth was measured?
84.1

Short answer please: growth, UACC-257 melanoma, entry `CCC1=C(c2ccc(OC)cc2)C(C)(C)Oc2c1ccc(O)c2CN1CCCC1`
-16.1

Provide the documented growth with UACC-257 melanoma as the system for Cc1cc2c(C#N)n3c(c2cc1C)C(=O)C(c1ccccc1)Oc1ccccc1-3 (stereo unspecified)
44.7

Can you look up growth on UACC-257 melanoma for `COc1c(C)c2c(c(O)c1C/C=C(\C)CCC(=O)OCCN1CCOCC1)C(=O)OC2` ?
7.21

Hi! What's the reported growth for `O=[N+]([O-])c1cnc(Sc2ccncn2)c([N+](=O)[O-])c1` on UACC-257 melanoma?
-9.5

For UACC-257 melanoma, provide growth of CCOC(=O)C(C(C)=O)c1nc2sc3cc(Cl)ccc3n2c(=N)c1C#N (stereo unspecified) please.
72.6

Notebook entry, UACC-257 melanoma assay: growth of `Cc1c(C(N)=O)sc2ncn(Cc3ccccc3)c(=O)c12` = ?
163

###

Test system: SR leukemia
method notes: NCI-60 one-dose screen, 48 h (100 = growth as untreated, 0 = no growth, -100 = all killed)
test settings: 10 µM unless noted
This is part of a sample that, as a whole, favours compounds with a hit. Of some 83,000 tested, about 20% had one in any assay.
Please go through the items and note down their growth.
The reply should be a number in %, with the unit left off.

Request: growth, test system SR leukemia, entry `Cc1c(C(N)=O)sc2nc(SCC(=O)Nc3ccc(Cl)cc3)n(-c3ccccc3)c(=O)c12`
106

Please provide the recorded growth for CCC1=C(c2ccc(OC)cc2)C(C)Oc2cc(OC(C)=O)ccc21 (stereo not given) , tested on SR leukemia.
53

Please tell me: growth of `CN(C)c1ccc2c(c1)/C(=N/O)c1ccccc1-2` , system SR leukemia?
47.1

Provide the documented growth with SR leukemia as the system for `CCOC(=O)c1c2c(c(C)n1Cc1ccccc1)-c1nc(N)ncc1CC2`
86.2

Hello, I am looking for reported growth with SR leukemia for `COc1ccc(-c2cncn2-c2ccc(-c3nc4cc(OC)c(OC)c(OC)c4s3)cc2)cc1N` . Could you help?
43.4

Param readout= growth; system= SR leukemia; entry= `C[n+]1ccc(Nc2ccc(NC(=O)c3ccc(Nc4cc[n+](C)c5ccc(N)cc45)cc3)cc2)cc1` ; returns value.
93.2

Look up growth with SR leukemia for this compound: `Cc1c(C(N)=O)sc2ncn(CC(=O)Nc3ccc(Cl)cc3)c(=O)c12`
85

GET /values?readout=growth&system=SR leukemia&item= `COc1cc(-c2cc(C(=O)Nc3nc4ccccc4s3)nc3cc(-c4ccccc4)nn23)cc(OC)c1OC`
67

Kindly state the measured growth obtained for O=C(/C=C/c1cccnc1)NCCCCC1CCCN(C(=O)c2ccccc2)C1 (stereo not given) with SR leukemia.
33

# returns recorded growth (system: SR leukemia) for `O=C1/C(=C/c2ccc([N+](=O)[O-])o2)Oc2ccc(Br)cc21`
8.8

###

Tested on: EKVX NSCLC
method notes: NCI-60 one-dose screen, 48 h (100 = growth as untreated, 0 = no growth, -100 = all killed)
test settings: 10 µM unless noted
This is part of a sample that, as a whole, favours compounds with a hit. Of some 83,000 tested, about 20% had one in any assay.
property name: growth (%)
Express your answer in %, writing the number without its unit.

What growth value was documented for this compound, `O=C1OCC/C1=C\OCCCO/C=C1\CCOC1=O` ?
101

Look at this compound and give its reported growth. `CCCCCCCCCCCCCCCCN=C(CC(=O)O)C(=O)O`
113

Entry under review: `CCC(CC)NCCCCCNc1cc(OC)cc2cccnc12` . Reported growth?
104

GET /values?readout=growth&item= COc1ccc(C2CC(c3ccc(OC)c(OC)c3)=NN2C(=O)c2cc(OC)c(OC)c(OC)c2)c(OC)c1 (stereo unspecified)
86.7

May I ask what growth has been recorded for `O=C(/C=C/c1cccnc1)/C=C/c1cccnc1` ?
43.3

So what's the measured growth for this one? CSc1nc2c(c(=O)n1C)C(c1ccccc1)C1=C(N2)/C(=C/c2ccccc2)CCC1 (stereo unspecified)
39.1

Data provenance: PubChem BioAssay (NCI)
